Listed here: items and their measured Ki.
biological target: human glucagon receptor (GCGR) (Homo sapiens (Human), UniProt P47871); assay: Inhibition of 125I-glucagon binding to membranes from HEK293 cells expressing the human glucagon receptor; conditions: membranes of hGluc-1 HEK cells, 125I-glucagon 0.3 nM, 2 hours room temperature; IC50 converted to Ki; average if tested more than once
Sequence (P47871 26-477): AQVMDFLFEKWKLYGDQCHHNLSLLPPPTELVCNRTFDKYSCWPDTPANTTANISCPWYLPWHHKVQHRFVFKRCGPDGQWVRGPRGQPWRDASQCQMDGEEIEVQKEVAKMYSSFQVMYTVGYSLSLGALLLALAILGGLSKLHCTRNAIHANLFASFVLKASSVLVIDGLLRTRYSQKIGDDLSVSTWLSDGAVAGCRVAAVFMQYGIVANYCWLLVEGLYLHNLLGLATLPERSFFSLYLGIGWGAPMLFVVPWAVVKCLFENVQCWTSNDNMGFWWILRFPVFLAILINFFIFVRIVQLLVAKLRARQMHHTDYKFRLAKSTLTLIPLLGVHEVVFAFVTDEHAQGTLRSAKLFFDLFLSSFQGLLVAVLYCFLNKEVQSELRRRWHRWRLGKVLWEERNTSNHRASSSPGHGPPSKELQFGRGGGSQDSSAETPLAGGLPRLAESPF

Compound | Measurement target | Ki
O=C(O)CCNC(=O)c1ccc(-c2cc(Cl)ccc2CNc2ccc(-c3ccc(Cl)cc3Cl)cc2F)cn1 [Compound 11] | human glucagon receptor (GCGR) (Homo sapiens (Human), UniProt P47871) | 41.2 nM
O=C(O)CCNC(=O)c1ccc(-c2cc(Cl)ccc2C(=O)Nc2ccc(-c3ccc(F)cc3F)cc2)cn1 [Compound 36] | human glucagon receptor (GCGR) (Homo sapiens (Human), UniProt P47871) | 67.3 nM
Cc1cc(Cl)ccc1-c1ccc(NC(=O)c2ccc(Cl)cc2-c2ccc(C(=O)NCCC(=O)O)nc2)cc1 [Compound 153] | human glucagon receptor (GCGR) (Homo sapiens (Human), UniProt P47871) | 32.9 nM
O=C(O)CCNC(=O)c1ccc(-c2cc(F)c(F)cc2C(=O)Nc2ccc(-c3ccc(Cl)cc3)cc2)cn1 [Compound 97] | human glucagon receptor (GCGR) (Homo sapiens (Human), UniProt P47871) | 57.4 nM
